System: Rattus norvegicus
Protocol Notes: The compound was tested ex vivo at a dose of 0.08 mmol/kg for ADP induced platelet aggregation in rat
Format: functional
Parameter Measured: Activity
Numbers only.

Would you please look over these solved cases?
Compound	Numeric Result
O=c1c2ccccc2sn1CCCN1CCCCC1	1
O=c1c2ccccc2sn1CCN1CCCCC1	1.7
COc1cc2sn(CCCCN3CC4CCC(CC4)C3)c(=O)c2cc1OC	1.4

# next compound below
Ask: Fill in the blank: the reported Activity of O=C1C(CC[S+]([O-])c2ccccc2)C(=O)N(c2ccccc2)N1c1ccccc1 (centres undefined) is ____.
Result: 1.2

----------
Field: Activity. Provide a value for each of the compounds that follow.
Tested on: Rattus norvegicus
Protocol Notes: The compound was tested ex vivo at a dose of 0.15 mmol/kg for collagen induced platelet aggregation in rat
Assay type: functional
Give bare numbers.

Would you please look over these solved cases?
COc1cc2sn(CCN3CC4CCC(CC4)C3)c(=O)c2cc1OC 2.9
CCN(CC)CCn1sc2cc(OC)c(OC)cc2c1=O 1.5

# next compound below
Ask: Fill in the blank: the reported Activity of O=c1c2ccccc2sn1-c1ccccc1 is ____.
Result: 1.1

----------
Tested on: Cavia porcellus
Protocol Notes: The compound was tested ex vivo at a dose of 0.04 mmol/kg for ADP induced platelet aggregation in guinea pig
Format: functional
Field: Activity. Provide a value for each of the compounds that follow.
Give bare numbers.

Would you please look over these solved cases?
Compound	Parameter Measured	Numeric Result
Cc1cc(C)c2c(=O)n(CCN3CCCCC3)sc2c1	Activity	2.1
O=C1C(CC[S+]([O-])c2ccccc2)C(=O)N(c2ccccc2)N1c1ccccc1 (stereo not given)	Activity	1.1
CCN(CC)CCn1sc2cc(C)cc(C)c2c1=O	Activity	2.2

// batch mode: one Activity value per listed entry
1. Cc1cc(C)c2c(=O)n(CCCCN3CC4CCC(CC4)C3)sc2c1
2. Cc1cc(C)c2c(=O)n(CCc3ccccn3)sc2c1

Result:
[0.8, 1]
